Exercise: state measured TGI for each of the compounds provided.
# Test system: CAKI-1 renal
# test-description: NCI tumour cell line growth inhibition, 48 h

Before answering, review these 2 worked examples.
>>> df
                compound     value
0  c1ccc2c(c1)nc1n2CNCC1  > 100 µM
1    NCCCNCCSSCCCCS(=O)O  > 100 µM

Give measured TGI for every item shown.
1. Cc1ccc(NC(=O)C2C(=O)N(c3ccc(C)c(C)c3)C(=O)/C2=N/O)cc1C (stereo unspecified)
2. N#C/C(C(=S)Nc1ccccc1)=C1/NN=C2c3ccccc3C(=O)NN21
3. CN1C(NC(=O)c2ccc(Cl)nc2)=NS(=O)(=O)c2cc(Cl)ccc21
4. COc1cc(C2c3cc4c(cc3[C@H](OCCN(C)C)[C@@H]3COC(=O)C23)OCO4)cc(OC)c1O (stereo partly specified)
5. CC(C)CSc1nc(Nc2ccccc2)c(C#N)c(-c2ccc(F)cc2)n1
6. Cc1ccccc1Nc1cn(COCc2ccccc2)c(=O)[nH]c1=O
7. CSc1ccc(C2C(Cl)C(=O)N2NC(=O)c2c(Cl)c(Cl)c(Cl)c(Cl)c2-c2nc3ccccc3[nH]2)cc1 (stereo unspecified)

**A:**
1: > 100 µM; 2: > 100 µM; 3: > 100 µM; 4: 1.07 µM; 5: 2.46 µM; 6: > 100 µM; 7: 42.8 µM

Give measured TGI for every item shown.
1. O=c1c2ccccc2nnn1-c1n[nH]c2ccccc12
2. Nc1nc(Cl)cc(NCC2(CO)CC(OCc3ccccc3)C2)n1 (stereo unspecified)
3. CCOCNC(=O)N(COCC)COCC
4. CC(C)CC(N)C(=O)O (stereo unspecified)
5. COc1ccc(-c2nc(-c3nc4ccc(C)cc4[nH]3)c3ccccn23)cc1
6. CC[C@]12C=CCN3CC[C@@]4(c5ccc(OC)cc5N(C)[C@H]4[C@@](O)(C(=O)OC)[C@@H]1OC(C)=O)[C@@H]32
7. CC(=O)c1cccc2c1CC1(C2)Cc2ccc3c(c2C1=O)CCC3 (stereo unspecified)
8. COC(=O)C1=C(c2ccc3c(c2)OCO3)O[C@H](c2ccc3c(c2)OCO3)[C@H]1COC(C)=O

**A:**
["> 100 µM", "> 100 µM", "> 100 µM", "> 100 µM", "> 100 µM", "> 200 µM", "> 100 µM", "> 100 µM"]

* * *

# Tested on: MOLT-4 leukemia
# test-description: NCI tumour cell line growth inhibition, 48 h
Exercise: state measured TGI for each of the compounds provided.

Before answering, review these 4 worked examples.
>>> df
                                   compound     value
0                   CN(C)CC(CN(C)C)c1ccccn1  > 100 µM
1  COC1(OC)C2(Cl)CCC1(Cl)C(OC(C)=O)C2 (stereo unspecified)  > 100 µM
2  CC#CC(=O)Nc1ccccc1CC(c1c[nH]c2ccccc12)c1c[nH]c2ccccc12   44.6 µM
3  C=C(C)[C@@H](C(=O)OC)N1C(=O)c2ccccc2C1=O  > 100 µM

Give measured TGI for every item shown.
1. O=C1NC(Nc2cccc(Cl)c2)=N/C1=C\c1ccc(Cl)c(Cl)c1
2. O=C(O)c1cc(N=Nc2ccc([As](=O)(O)O)cc2)ccc1O

**A:**
20.8 µM
> 100 µM
